Test method notes: self-splicing fitness, log relative to wild type (ln ratio); higher = more splicing; Tetrahymena group I intron in knt gene, E. coli kanamycin selection, DiMSum; sequences stand for … in CUCUCU…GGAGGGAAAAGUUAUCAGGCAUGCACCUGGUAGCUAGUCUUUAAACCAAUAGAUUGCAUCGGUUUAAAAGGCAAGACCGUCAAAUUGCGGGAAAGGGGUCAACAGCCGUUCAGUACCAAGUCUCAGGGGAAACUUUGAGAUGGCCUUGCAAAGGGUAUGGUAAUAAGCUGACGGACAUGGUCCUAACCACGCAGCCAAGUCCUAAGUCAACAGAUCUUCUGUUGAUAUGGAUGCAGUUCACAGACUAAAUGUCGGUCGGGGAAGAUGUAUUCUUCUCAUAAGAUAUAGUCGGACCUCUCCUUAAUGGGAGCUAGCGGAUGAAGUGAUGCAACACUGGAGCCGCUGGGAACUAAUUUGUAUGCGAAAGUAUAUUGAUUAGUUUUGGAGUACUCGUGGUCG;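 note: selection with 25 µg/mL kanamycin versus none on LB agar overnight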
Condition context: 37 °C
Test readout: self-splicing fitness (ln)

[[record]]
construct_sequence = "GCAUAGCAAUAUUACGAGGC"
val = -1.27

[[record]]
construct_sequence = "UGGAAGCAAUAUUACGUUUU"
val = -2.43

[[record]]
construct_sequence = "UUAUAGCAAUAUUACGGAUA"
val = -0.955

[[record]]
construct_sequence = "CACCAGCAAUAUUACGCGUC"
val = -0.883

[[record]]
construct_sequence = "CUAUAGCAAUAUUACGCGGG"
val = -2.88

[[record]]
construct_sequence = "GGUCAGCAAUAUUACGACGA"
val = 0.501

[[record]]
construct_sequence = "GCGCAGCAAUAUUACGGUCG"
val = -1.81

[[record]]
construct_sequence = "UUGAAGCAAUAUUACGCGUC"
val = -1.02

[[record]]
construct_sequence = "UAAAAGCAAUAUUACGGAGG"
val = -2.07

[[record]]
construct_sequence = "GAAAAGCAAUAUUACGGGAC"
val = -2.06

[[record]]
construct_sequence = "GAGUAGCAAUAUUACGCCUC"
val = -3.01

[[record]]
construct_sequence = "GACCAGCAAUAUUACGCGGG"
val = -2.79

[[record]]
construct_sequence = "CAUCAGCAAUAUUACGCAAG"
val = -0.304

[[record]]
construct_sequence = "GCACAGCAAUAUUACGAAGU"
val = -0.941

[[record]]
construct_sequence = "CCAGAGCAAUAUUACGCGGC"
val = -2.96

[[record]]
construct_sequence = "GGUUAGCAAUAUUACGCAGA"
val = -2.02

[[record]]
construct_sequence = "CCCCAGCAAUAUUACGUUUU"
val = -2.55

[[record]]
construct_sequence = "UACUAGCAAUAUUACGUUGG"
val = -0.807

[[record]]
construct_sequence = "AAACAGCAAUAUUACGCAAC"
val = -1.93

[[record]]
construct_sequence = "AUGAAGCAAUAUUACGCGAU"
val = -1.59

[[record]]
construct_sequence = "UCGCAGCAAUAUUACGUCGG"
val = -1.79

[[record]]
construct_sequence = "UCGUAGCAAUAUUACGGGAU"
val = -1.99

[[record]]
construct_sequence = "AGGCAGCAAUAUUACGCGUC"
val = -2.54

[[record]]
construct_sequence = "CCGGAGCAAUAUUACGGUGG"
val = -2.61

[[record]]
construct_sequence = "GUGCAGCAAUAUUACGAGCA"
val = -1.18

[[record]]
construct_sequence = "GGGCAGCAAUAUUACGGGCA"
val = -0.0115

[[record]]
construct_sequence = "UUCUAGCAAUAUUACGGGCC"
val = -2.38

[[record]]
construct_sequence = "UGGAAGCAAUAUUACGACUC"
val = -0.577

[[record]]
construct_sequence = "UAUUAGCAAUAUUACGACUA"
val = 0.46

[[record]]
construct_sequence = "GGUUAGCAAUAUUACGUAUU"
val = -0.191

[[record]]
construct_sequence = "CGUCAGCAAUAUUACGAGAC"
val = -1.9

[[record]]
construct_sequence = "UACAAGCAAUAUUACGAUCU"
val = -0.61

[[record]]
construct_sequence = "CCAUAGCAAUAUUACGUGAC"
val = -2.79

[[record]]
construct_sequence = "AGCUAGCAAUAUUACGAGGC"
val = -1.96

[[record]]
construct_sequence = "UGCGAGCAAUAUUACGGGAC"
val = -1.88

[[record]]
construct_sequence = "GUCAAGCAAUAUUACGAGUA"
val = -1.98

[[record]]
construct_sequence = "UAUAAGCAAUAUUACGUCUU"
val = -0.554

[[record]]
construct_sequence = "AUUAAGCAAUAUUACGGACU"
val = 0.324

[[record]]
construct_sequence = "UGGUAGCAAUAUUACGCACU"
val = -0.474

[[record]]
construct_sequence = "UGGGAGCAAUAUUACGGUAG"
val = -1.26

[[record]]
construct_sequence = "AAGCAGCAAUAUUACGCAAG"
val = -0.222

[[record]]
construct_sequence = "CGGAAGCAAUAUUACGUCUU"
val = -0.53

[[record]]
construct_sequence = "GCACAGCAAUAUUACGGGAG"
val = -1.47

[[record]]
construct_sequence = "CGUAAGCAAUAUUACGUACG"
val = -1.59

[[record]]
construct_sequence = "UUGUAGCAAUAUUACGAUUA"
val = -0.211

[[record]]
construct_sequence = "AUGGAGCAAUAUUACGGCCA"
val = -0.494

[[record]]
construct_sequence = "GACAAGCAAUAUUACGCAAU"
val = -1.58

[[record]]
construct_sequence = "UGAAAGCAAUAUUACGGGGA"
val = -0.977

[[record]]
construct_sequence = "GUGAAGCAAUAUUACGACCC"
val = 0.469

[[record]]
construct_sequence = "CUGUAGCAAUAUUACGUGCA"
val = -2.5

[[record]]
construct_sequence = "GGACAGCAAUAUUACGUCGU"
val = -0.405

[[record]]
construct_sequence = "CCAAAGCAAUAUUACGACCA"
val = -1.78

[[record]]
construct_sequence = "UAUGAGCAAUAUUACGUCGA"
val = -2.47

[[record]]
construct_sequence = "CAUAAGCAAUAUUACGCACA"
val = -0.312

[[record]]
construct_sequence = "CGUUAGCAAUAUUACGUCGA"
val = -1.16

[[record]]
construct_sequence = "CAACAGCAAUAUUACGUUAA"
val = -2.16

[[record]]
construct_sequence = "GUGAAGCAAUAUUACGAACU"
val = -0.516

[[record]]
construct_sequence = "UGAUAGCAAUAUUACGAUGU"
val = -2.04

[[record]]
construct_sequence = "CCCUAGCAAUAUUACGAUCC"
val = -1.26

[[record]]
construct_sequence = "GCCGAGCAAUAUUACGUGAG"
val = -0.333

[[record]]
construct_sequence = "AUUGAGCAAUAUUACGAAGA"
val = -2.23

[[record]]
construct_sequence = "ACGUAGCAAUAUUACGCUGA"
val = -0.483

[[record]]
construct_sequence = "GCUCAGCAAUAUUACGUCAC"
val = -2.06

[[record]]
construct_sequence = "CGGUAGCAAUAUUACGCCCA"
val = 0.145

[[record]]
construct_sequence = "AUUCAGCAAUAUUACGGGAC"
val = -1.2

[[record]]
construct_sequence = "GUCCAGCAAUAUUACGUCAC"
val = -0.6

[[record]]
construct_sequence = "CAAUAGCAAUAUUACGAGAU"
val = -2.82


Hello, the source for this data is the supplement of paper PMC7877785, in case you need it.
